# System: MM1.S (multiple myeloma) cells
# assay_details: In vitro cell proliferation, MM1.S multiple myeloma cells (CellTiter-Glo, ATP)
# Format: cell-based
# experimental_conditions: 72 hours, read-out: Prolif MM1S ATP (EC50)
# Procedure: BaF3, a murine interleukin-3 dependent pro-B cell line, parental cells, BaF3 PIM1 cells, BaF3 PIM2 cells, and MM1.S (multiple myeloma) cells were seeded at 2 k/well, 5 k/well, 5 k/well, and 10 k/well respectively, in a 384-well plate, at 45 μL/well. Test compound was added at 5 μL/well. BaF3 cells (parental and transfected) were incubated overnight, while MM1.S cells were incubated for 72 hours at 37° C., 5% CO2. […] IC50/EC50 values for the test compound were calculated.
recorded_endpoint: pEC50
The read-out pEC50 is expressed as -log10 of concentration in moles per litre.

So, COC1(C)CC(N)CCN(c2c(NC(=O)c3nc(-c4c(F)cccc4F)sc3N)cnn2C)C1 (single isomer, unassigned) [Example 353] ? Its pEC50 was 6.86

pEC50 for COC1CC(N)CCN(c2c(NC(=O)c3nc(-c4c(F)cccc4F)sc3N)cnn2C)C1 (stereo not drawn) [Example 316] is 6.79

Recorded pEC50 (molecule CCOC1CCN(c2c(NC(=O)c3nc(-c4c(F)cccc4F)sc3N)cnn2C)CCC1N (stereo not drawn) [Example 515] ): 7.13
